The reported numbers originate from patent US5405861A.

System: Candida albicans
Test: Infection-preventing effect in experimental infection in mice, Method 1 (Table 7-1)
Assay type: in vivo, Crj:CDF1 mice
Settings: Candida albicans, sc, 168 h, s.c., given 0 and 2 hours after infection; survival 7 days after infection; total dose; read-out: ED50
PROPERTY: ED50
Just so you know, I need the unit written after the number.

[in] Please give the measured ED50 for this compound: C[C@@H](SCc1nccn1C1CC1)[C@](O)(Cn1cncn1)c1ccc(F)cc1F [Compound 110]
[out] 0.35 mg/kg

[in] # ED50 lookup, item C[C@@H](SCc1nccn1C)[C@](O)(Cn1cncn1)c1ccc(F)cc1F (relative stereo)
[out] 0.63 mg/kg

[in] Record request: ED50 value, item C[C@@H](S)[C@](O)(Cn1cncn1)c1ccc(F)cc1F (racemic) [Compound 39]
[out] 0.19 mg/kg

[in] Given C[C@@H](SCc1nccn1C1CC1)[C@](O)(Cn1cncn1)c1ccc(F)cc1F (relative stereo) [Compound 55] , state its recorded ED50.
[out] 0.5 mg/kg

[in] // returns reported ED50 for input Cc1ncc(CS[C@H](C)[C@](O)(Cn2cncn2)c2ccc(F)cc2F)s1 (relative stereo)
[out] 2 mg/kg

More entries:
[in] Tell me the measured ED50 of Cc1csc(CS[C@H](C)[C@](O)(Cn2cncn2)c2ccc(F)cc2F)n1 (relative stereo) , please.
[out] 1.4 mg/kg

[in] May I ask what ED50 has been recorded for C[C@@H](SCc1ncc2cnccn12)[C@](O)(Cn1cncn1)c1ccc(F)cc1F (relative stereo) ?
[out] 0.5 mg/kg

###

Test system: Candida albicans
Assay: Infection-preventing effect in experimental infection in mice, Method 1 (Table 7-1)
Type: in vivo, Crj:CDF1 mice
Conditions: Candida albicans, sc, 168 h, s.c., given 0 and 2 hours after infection; survival 7 days after infection; total dose; read-out: ED50
Procedure: Method 1 (Table 7-1): To 5-week-old Crj:CDF1 mice the minimum lethal dose of Candida albicans was inoculated intravenously. The test drug was given twice 0 and 2 hours after infection. The effectiveness of the drug was expressed in ED50 values calculated by the Reed and Muench method from the survival rate 7 days after infection. The ED50 values were calculated based on the total dose given on the two occasions.
PROPERTY: log10(ED50) (log10 of the value in mg/kg)
Please interpret these as log10 of ED50 where ED50 is in mg/kg.

Some compounds with known log10(ED50) results, for comparison:
[in] For CC(=O)S[C@H](C)[C@](O)(Cn1cncn1)c1ccc(F)cc1F [Compound 45] , what is its reported log10(ED50)?
[out] -0.80

[in] Look up log10(ED50): C[C@@H](S)[C@](O)(Cn1cncn1)c1ccc(F)cc1F [Compound 43]
[out] -0.74

[in] Which measured log10(ED50) value corresponds to Cc1oc(=O)oc1CS[C@H](C)[C@](O)(Cn1cncn1)c1ccc(F)cc1F (racemic) [Compound 56] ?
[out] 0.30

[in] Using the record for CCn1ccnc1CS[C@H](C)[C@](O)(Cn1cncn1)c1ccc(F)cc1F (relative stereo) , report its log10(ED50).
[out] -0.15

[in] Return reported log10(ED50); argument: C[C@@H](SCCc1nccn1C)[C@](O)(Cn1cncn1)c1ccc(F)cc1F (racemic)
[out] 0.51

[in] Any idea what log10(ED50) was measured for C[C@@H](SCc1cn(C)cn1)[C@](O)(Cn1cncn1)c1ccc(F)cc1F (relative stereo) ?
[out] -0.19

[in] For the compound shown here, CC(=O)S[C@H](C)[C@](O)(Cn1cncn1)c1ccc(F)cc1F (relative stereo) [Compound 40] , give the reported log10(ED50).
[out] -0.46

Please look at the following compound next.
[in] Quick check: log10(ED50) of C[C@@H](SCc1ncnn1C)[C@](O)(Cn1cncn1)c1ccc(F)cc1F (relative stereo) ?
[out] -0.15
